Target: T1, 4H568-bA
T1 chain: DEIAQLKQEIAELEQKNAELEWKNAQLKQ
Experiment: two-hybrid library CCNG1;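 also: natural log of median RNA to DNA barcode read ratio; higher means stronger binding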
observed_property: interaction score

Below are worked cases with known answers.
INSERT INTO results (binder, observed_property, recorded_value) VALUES
  ('DKIAQLKQEIAELEQKNAELEWEIAQLKQ [4H2610-bA]', 'interaction score', -0.602),
  ('DKIAQLKQENAELEQEIAELKWEIAQLEQ [4H2697-bA]', 'interaction score', -1.82);

[a] DKNAQLKQENAELKQEIAELEWKIAQLKQ [4H3782-bA]
[b] DEIAQLKQEIAELEQKNAELEWKNAQLKQ [4H568-bA]
Input line: Would you let me know which has the greater interaction score value, a or b ? Field: selected label. Fill in the label of the entry you choose.
Output line: b
(b: 1.33, a: -1.41)

[P] DKNQELKKKIEELKRENWELEKKIQELKR [4H3926-bH]
[Q] DEIAQLEQKNAELKQEIAELKWKIAQLKQ [4H462-bA]
[R] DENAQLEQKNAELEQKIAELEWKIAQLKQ [4H1446-bA]
Input line: Endpoint returns the given binders ordered by ascending interaction score. Give the order by naming the labels one after another as requested.
Output line: Q, R, P
